Examples of molecules with documented surface tension liquid-gas follow.
- PROCEDURE_DETAILS: xn = mol fraction of the nth substance listed
- MEASUREMENT_CONTEXT: 308.15 K, Wilhelmy plate method, x1 = 0.55
Just the number in mN/m, nothing appended.

Use the examples below as a reference point.
# MOLECULE, READOUT_VALUE
measured = [
    ("COC(=O)c1ccccc1 [methyl benzoate] + CCO", 28.6),
    ("CCOC(=O)c1ccccc1O [ethyl 2-hydroxybenzoate] + CCO", 27.68),
    ("CCC(=O)OCc1ccccc1 [benzyl propanoate] + CCO", 27.85),
    ("CCOC(=O)CC(C)=O [ethyl 3-oxobutanoate] + CCO", 26.84),
    ("CC(=O)OCc1ccccc1 [benzyl ethanoate] + CCO", 28.67),
]

The reported surface tension liquid-gas of the molecule CCOC(=O)CC(C)C [ethyl 3-methylbutanoate] + CCO was 22.04

---

- PROCEDURE_DETAILS: refractive index (Na D-line) (dimensionless); xn = mol fraction of the nth substance listed
- MEASUREMENT_CONTEXT: 308.15 K; 100.5 kPa; Liquid; Standard Abbe refractometry; x1 = 0.25
EXPERIMENTAL_READOUT: refractive index
Lab note: write the figure by itself, no unit.

The reported refractive index of the compound CCC(=O)OCc1ccccc1 [benzyl propanoate] + CCO was 1.42091

---

- PROCEDURE_DETAILS: xn = mol fraction of the nth substance listed
- MEASUREMENT_CONTEXT: 298.18 K, Wilhelmy plate method, x1 = 0.25
Examples of molecules with documented surface tension liquid-gas follow.
Just the number in mN/m, nothing appended.

Use the examples below as a reference point.
# MOLECULE, surface tension liquid-gas, mN/m
records = [
    ("CC(=O)OCc1ccccc1 [benzyl ethanoate] + CCO", 25.77),
    ("CCOC(=O)CC(C)C [ethyl 3-methylbutanoate] + CCO", 22.73),
    ("COC(=O)c1ccccc1 [methyl benzoate] + CCO", 25.96),
]

The reported surface tension liquid-gas of the molecule CCOC(=O)CC(C)=O [ethyl 3-oxobutanoate] + CCO was 24.89

The reported surface tension liquid-gas of the molecule CCC(=O)OCc1ccccc1 [benzyl propanoate] + CCO was 25.78

The reported surface tension liquid-gas of the molecule CCOC(=O)c1ccccc1O [ethyl 2-hydroxybenzoate] + CCO was 25.65

---

- PROCEDURE_DETAILS: xn = mol fraction of the nth substance listed
- MEASUREMENT_CONTEXT: 298.18 K, Wilhelmy plate method, x1 = 0.75
Use Criterion met when the recorded surface tension liquid-gas is no lower than 30 mN/m; use Criterion not met when it is lower.

# MOLECULE, ANSWER_LABEL
records = [
    ("CCOC(=O)c1ccccc1O [ethyl 2-hydroxybenzoate] + CCO", "Criterion met"),
    ("CC(=O)OCc1ccccc1 [benzyl ethanoate] + CCO", "Criterion met"),
    ("CCOC(=O)CC(C)C [ethyl 3-methylbutanoate] + CCO", "Criterion not met"),
    ("CCC(=O)OCc1ccccc1 [benzyl propanoate] + CCO", "Criterion met"),
]

Ask: Record COC(=O)c1ccccc1 [methyl benzoate] + CCO ; criterion: surface tension liquid-gas no lower than 30 mN/m. Met?
Reply: Criterion met

---

Examples of compounds with documented surface tension liquid-gas follow.
- PROCEDURE_DETAILS: xn = mol fraction of the nth substance listed
- MEASUREMENT_CONTEXT: 298.18 K, Wilhelmy plate method, x1 = 0.5
Just the number in mN/m, nothing appended.

# COMPOUND, surface tension liquid-gas, mN/m
measured = [
    ("CCOC(=O)CC(C)=O [ethyl 3-oxobutanoate] + CCO", 27.4),
    ("CC(=O)OCc1ccccc1 [benzyl ethanoate] + CCO", 29.02),
    ("CCOC(=O)c1ccccc1O [ethyl 2-hydroxybenzoate] + CCO", 28.1),
    ("COC(=O)c1ccccc1 [methyl benzoate] + CCO", 29.16),
    ("CCC(=O)OCc1ccccc1 [benzyl propanoate] + CCO", 28.36),
]

Then this compound:
The reported surface tension liquid-gas of the compound CCOC(=O)CC(C)C [ethyl 3-methylbutanoate] + CCO was 23

---

- PROCEDURE_DETAILS: xn = mol fraction of the nth substance listed
- MEASUREMENT_CONTEXT: 298.18 K, Wilhelmy plate method, x1 = 0.8
Use true when the recorded surface tension liquid-gas is no lower than 30 mN/m; use false when it is lower.

# COMPOUND, ANSWER_LABEL
measured = [
    ("COC(=O)c1ccccc1 [methyl benzoate] + CCO", "true"),
]

Continue with the next compound.
Ask: Record CC(=O)OCc1ccccc1 [benzyl ethanoate] + CCO ; criterion: surface tension liquid-gas no lower than 30 mN/m. Met?
Reply: true

---

- PROCEDURE_DETAILS: refractive index (Na D-line) (dimensionless); xn = mol fraction of the nth substance listed
- MEASUREMENT_CONTEXT: 298.18 K; 100.5 kPa; Liquid; Standard Abbe refractometry; x1 = 0.15
EXPERIMENTAL_READOUT: refractive index
Lab note: write the figure by itself, no unit.

Use the examples below as a reference point.
# COMPOUND, EXPERIMENTAL_READOUT, READOUT_VALUE
rows = [
    ("CCOC(=O)CC(C)=O [ethyl 3-oxobutanoate] + CCO", "refractive index", 1.3757),
    ("CCC(=O)OCc1ccccc1 [benzyl propanoate] + CCO", "refractive index", 1.40454),
    ("CCOC(=O)CC(C)C [ethyl 3-methylbutanoate] + CCO", "refractive index", 1.37038),
    ("CC(=O)OCc1ccccc1 [benzyl ethanoate] + CCO", "refractive index", 1.40288),
    ("COC(=O)c1ccccc1 [methyl benzoate] + CCO", "refractive index", 1.40383),
]

The reported refractive index of the compound CCOC(=O)c1ccccc1O [ethyl 2-hydroxybenzoate] + CCO was 1.41072

---

- PROCEDURE_DETAILS: refractive index (Na D-line) (dimensionless); xn = mol fraction of the nth substance listed
- MEASUREMENT_CONTEXT: 318.15 K; 100.5 kPa; Liquid; Standard Abbe refractometry; x1 = 0.6
± gives the expanded uncertainty stated by the source.
Examples of compounds with documented refractive index follow.

# COMPOUND, refractive index
rows = [
    ("COC(=O)c1ccccc1 [methyl benzoate] + CCO", "1.46979 ± 0.00033"),
    ("CC(=O)OCc1ccccc1 [benzyl ethanoate] + CCO", "1.46154 ± 0.00032"),
]

The reported refractive index of the compound CCC(=O)OCc1ccccc1 [benzyl propanoate] + CCO was 1.46029 ± 0.00033

The reported refractive index of the compound CCOC(=O)c1ccccc1O [ethyl 2-hydroxybenzoate] + CCO was 1.47873 ± 0.00032

The reported refractive index of the compound CCOC(=O)CC(C)=O [ethyl 3-oxobutanoate] + CCO was 1.395 ± 0.0003

The reported refractive index of the compound CCOC(=O)CC(C)C [ethyl 3-methylbutanoate] + CCO was 1.37759 ± 0.00034

---

- PROCEDURE_DETAILS: xn = mol fraction of the nth substance listed
- MEASUREMENT_CONTEXT: 298.18 K, Wilhelmy plate method, x1 = 0.35
Examples of compounds with documented surface tension liquid-gas follow.
Just the number in mN/m, nothing appended.

# COMPOUND, UNIT_OF_MEASURE, surface tension liquid-gas
records = [
    ("CCOC(=O)CC(C)=O [ethyl 3-oxobutanoate] + CCO", "mN/m", 25.88),
    ("CCOC(=O)c1ccccc1O [ethyl 2-hydroxybenzoate] + CCO", "mN/m", 26.65),
    ("CCOC(=O)CC(C)C [ethyl 3-methylbutanoate] + CCO", "mN/m", 22.85),
]

The reported surface tension liquid-gas of the compound CC(=O)OCc1ccccc1 [benzyl ethanoate] + CCO was 27.02

The reported surface tension liquid-gas of the compound COC(=O)c1ccccc1 [methyl benzoate] + CCO was 27.3

The reported surface tension liquid-gas of the compound CCC(=O)OCc1ccccc1 [benzyl propanoate] + CCO was 26.8

---

- PROCEDURE_DETAILS: refractive index (Na D-line) (dimensionless); xn = mol fraction of the nth substance listed
- MEASUREMENT_CONTEXT: 318.15 K; 100.5 kPa; Liquid; Standard Abbe refractometry; x1 = 0.4
Examples of compounds with documented refractive index follow.
Lab note: write the figure by itself, no unit.

Use the examples below as a reference point.
# COMPOUND, refractive index
records = [
    ("CCOC(=O)c1ccccc1O [ethyl 2-hydroxybenzoate] + CCO", 1.45266),
    ("CCOC(=O)CC(C)=O [ethyl 3-oxobutanoate] + CCO", 1.3852),
    ("CCC(=O)OCc1ccccc1 [benzyl propanoate] + CCO", 1.43922),
    ("COC(=O)c1ccccc1 [methyl benzoate] + CCO", 1.44318),
    ("CC(=O)OCc1ccccc1 [benzyl ethanoate] + CCO", 1.4387),
]

Then this compound:
The reported refractive index of the compound CCOC(=O)CC(C)C [ethyl 3-methylbutanoate] + CCO was 1.37233
